# Tested on: MKL-2
# PROTOCOL_DESCRIPTION: qHTS assay to identify novel small-molecules to repurpose for Merkel cell carcinoma treatment (AID 1296009); note: nearly all actives have a fitted effect of over 60% in size
# MEASUREMENT_CONDITIONS: MCC and control cell lines, CellTiter-Glo viability, 72 h; series mostly up to 46 µM
Results filed as inconclusive are left out. The source made the active and inactive calls. Calls come from the whole dose curve; as a rule, active = well fitted inhibition curve with a large enough effect; inconclusive = small, poorly fitted or top-dose-only effect; inactive = flat fitted curve, though single readings scatter.
Outcome codes: active, inactive

compound=CC(=O)Oc1ccc(C(c2ccc(OC(C)=O)cc2)c2ccccn2)cc1 qualitative_label=inactive
compound=CC1(C)OC[C@@H](COC(=O)CCc2ccc(OC[C@@H](O)CNCCNC(=O)N3CCOCC3)cc2)O1 qualitative_label=inactive
compound=O=C1OC2(c3ccc(O)cc3Oc3cc(O)ccc32)c2ccccc21 qualitative_label=inactive
compound=COc1cc(/C=C/C(=O)O[C@H]2CC[C@]34C[C@]35CC[C@]3(C)[C@@H]([C@H](C)CCC=C(C)C)CC[C@@]3(C)[C@@H]5CC[C@H]4C2(C)C)ccc1O qualitative_label=inactive
compound="CCCCC(CC)CN=C(N)NC(N)=NCCCCCCN=C(N)NC(N)=NCC(CC)CCCC (centres undefined)" qualitative_label=active
compound=CCCCC(=O)O[C@]1(C(=O)CO)CC[C@H]2[C@@H]3CCC4=CC(=O)CC[C@]4(C)[C@H]3[C@@H](O)C[C@@]21C qualitative_label=inactive
compound=Cc1ccnc(NS(=O)(=O)c2ccc(N)cc2)n1 qualitative_label=inactive
compound=CC(C)(CO)[C@@H](O)C(=O)NCCCO qualitative_label=inactive
compound=CC(=O)OCC(=O)[C@@]12N=C(C)O[C@@H]1C[C@H]1[C@@H]3CCC4=CC(=O)C=C[C@]4(C)[C@H]3[C@@H](O)C[C@@]12C qualitative_label=inactive
compound=C[C@@H]1C[C@H]2[C@@H]3C[C@H](F)C4=CC(=O)C(Cl)=C[C@]4(C)[C@@]3(F)[C@@H](O)C[C@]2(C)[C@@]1(O)C(=O)CO qualitative_label=inactive
compound=NC(CO)(CO)CO qualitative_label=inactive
compound=CC(C)(C(=O)c1cccnc1)c1cccnc1 qualitative_label=inactive
compound=CNCC[C@@H](Oc1ccccc1C)c1ccccc1 qualitative_label=inactive
compound=CCCCCC=CCC=CCCCCCCCC(=O)OCC qualitative_label=active

* * *

# PROTOCOL_DESCRIPTION: qHTS profiling for inhibitors of Plasmodium falciparum proliferation (AID 504749);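 note: 0% = DMSO vehicle and full inhibition = artemisinin control; nearly all actives have a fitted effect of over 60% in size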
# MEASUREMENT_CONDITIONS: P. falciparum in erythrocytes, SYBR Green DNA, 72 h; at 12.8 µM (top of the series); parasite line A
Inconclusive results are not listed. The source made the active and inactive calls. Calls follow the shape of the dose curve; as a rule, active = well fitted inhibition curve with a large enough effect; inconclusive = small, poorly fitted or top-dose-only effect; inactive = flat fitted curve, though single readings scatter.
PROPERTY_LABEL: activity, negative = inhibition

input_smiles=CN1CCN(C(c2ccccc2)c2ccccc2)CC1 reported="3.5% (inactive)"
input_smiles=CN(C)CCCOc1nn(Cc2ccccc2)c2ccccc12 reported="-0.403% (inactive)"
input_smiles=CCn1cc(C(=O)O)c(=O)c2cnc(N3CCCC3)nc21 reported="-13.8% (inactive)"
input_smiles=CCN(CC)C(=O)N1CCN(C)CC1 reported="5.24% (inactive)"
input_smiles=COc1c2occc2c(OC)c2c(=O)cc(C)oc12 reported="5.55% (inactive)"
input_smiles=CN1CCN(CCCN2c3ccccc3Sc3ccc(S(=O)(=O)N(C)C)cc32)CC1 reported="5.01% (inactive)"
input_smiles=Cc1c(N(C)CS(=O)(=O)O)c(=O)n(-c2ccccc2)n1C reported="17.9% (inactive)"
input_smiles=CCCCOc1cc(C(=O)NCCN(CC)CC)c2ccccc2n1 reported="7.49% (inactive)"
input_smiles=Cc1ccnc(NS(=O)(=O)c2ccc(N)cc2)n1 reported="9.46% (inactive)"
